Ref: patent US9580409B2

# tested on: mu-opioid receptor (Homo sapiens, UniProt P35372)
# assay: cell-based
# condition info: […]; class symbol combines EC50 and efficacy; read-out: BArr Activity
# Sequence (P35372 whole entry, species assumed): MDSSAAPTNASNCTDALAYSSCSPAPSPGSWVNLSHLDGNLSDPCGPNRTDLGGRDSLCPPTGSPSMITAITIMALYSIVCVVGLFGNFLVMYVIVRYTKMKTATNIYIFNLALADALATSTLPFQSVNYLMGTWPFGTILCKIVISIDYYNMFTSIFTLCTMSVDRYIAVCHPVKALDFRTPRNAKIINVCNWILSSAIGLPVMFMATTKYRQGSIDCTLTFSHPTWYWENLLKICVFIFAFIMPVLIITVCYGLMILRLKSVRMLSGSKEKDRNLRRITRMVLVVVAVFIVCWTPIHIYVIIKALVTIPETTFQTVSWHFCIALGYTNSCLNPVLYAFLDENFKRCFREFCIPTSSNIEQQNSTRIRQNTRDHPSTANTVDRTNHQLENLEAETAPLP
# Sequence (P32121 whole entry partner, species assumed): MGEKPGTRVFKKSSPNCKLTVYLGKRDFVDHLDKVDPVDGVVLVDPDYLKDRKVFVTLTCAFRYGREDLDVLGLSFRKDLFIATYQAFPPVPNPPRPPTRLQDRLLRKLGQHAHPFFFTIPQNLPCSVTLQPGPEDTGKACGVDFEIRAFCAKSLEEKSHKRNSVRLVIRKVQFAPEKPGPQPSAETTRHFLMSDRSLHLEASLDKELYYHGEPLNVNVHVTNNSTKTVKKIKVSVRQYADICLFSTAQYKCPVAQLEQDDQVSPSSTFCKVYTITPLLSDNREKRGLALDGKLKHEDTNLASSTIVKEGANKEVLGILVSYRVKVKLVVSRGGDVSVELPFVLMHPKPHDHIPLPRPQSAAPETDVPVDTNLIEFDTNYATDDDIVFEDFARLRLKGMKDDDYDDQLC
quantity measured: EC50

The recorded EC50 for entry CNC1=C(c2nc3ccccc3[nH]2)C(=O)[C@]2(CCCOC2)N1c1cc(OC)cc(OC)c1 [compound 305] equals < 10 µM

The recorded EC50 for entry COc1cc(OC)cc(N2C(N)=C(c3nc4ccccc4[nH]3)C(=O)C2CCO)c1 (stereo not shown) [compound 203] equals < 10 µM

The recorded EC50 for entry CNC1=C(c2nc3ccccc3[nH]2)C(=O)C(CNC(C)=O)N1c1cc(OC)cc(OC)c1 (stereo not shown) [compound 287] equals < 10 µM

The recorded EC50 for entry CNC1=C(c2nc3ccccc3[nH]2)C(=O)[C@](C)(CNC(C)=O)N1c1cc(OC)cc(OC)c1 [compound 307] equals < 10 µM

---

# tested on: mu-opioid receptor (Homo sapiens)
# assay: biochemical
# condition info: class symbols; read-out: GTP Activity
# Sequence (P35372 whole entry, species assumed): as the sequence (P35372 whole entry, species assumed) above
So I've got a bunch of compounds here, and I need their EC50 values.

The recorded EC50 for entry CNC1=C(c2nc3ccccc3[nH]2)C(=O)[C@H](C)N1c1cc(OC)cc(OC)c1 [compound 137] equals 0.1 to 1 µM

The recorded EC50 for entry COc1cc(OC)cc(N2C(N)=C(c3nc4ccccc4[nH]3)C(=O)C23CCCC3)c1 [compound 180] equals 0.1 to 1 µM

The recorded EC50 for entry CCNC1=C(c2nc3ccccc3[nH]2)C(=O)C(C)(C)N1c1cc(OC)cc(OC)c1 [compound 89] equals < 0.1 µM

---

# tested on: mu-opioid receptor (Homo sapiens)
# assay: biochemical
# condition info: […]; class symbol combines EC50 and efficacy; read-out: GTP Activity
quantity measured: EC50

The recorded EC50 for entry CNC1=C(c2nc3ccccc3[nH]2)C(=O)C(C)(CNC(C)=O)N1c1cc(OC)cc(OC)c1 (stereo not drawn) equals < 100 nM

The recorded EC50 for entry COc1cc(OC)cc(N2C(N)=C(c3nc4ccccc4[nH]3)C(=O)C2CCN(C)C)c1 (stereo not drawn) equals 1000 to 10000 nM

The recorded EC50 for entry CCC(=O)NCC1C(=O)C(c2nc3ccccc3[nH]2)=C(NC)N1c1cc(OC)cc(OC)c1 (stereo not drawn) equals < 100 nM

---

# tested on: mu-opioid receptor (Homo sapiens, UniProt P35372)
# assay: biochemical
# condition info: class symbols; read-out: GTP Activity
pEC50: −log10 of the molar value.
quantity measured: pEC50

The recorded pEC50 for entry CCC1C(=O)C(c2nc3ccccc3[nH]2)=C(NC)N1c1cc(OC)cc(OC)c1 (centres unmarked) equals > 7.00

The recorded pEC50 for entry CNc1c(-c2nc3ccccc3[nH]2)c(=O)n(C)n1-c1cc(OC)cc(OC)c1 equals > 7.00

The recorded pEC50 for entry COc1cc(OC)cc(N2CC(=O)C(c3nc4cc(OC)ccc4[nH]3)=C2N)c1 equals 5.00 to 6.00

The recorded pEC50 for entry CC[C@H]1C(=O)C(c2nc3ccccc3[nH]2)=C(N)N1c1cc(OC)cc(OC)c1 equals > 7.00

The recorded pEC50 for entry C=CCNC1=C(c2nc3ccccc3[nH]2)C(=O)C(C)(C)N1c1cc(OC)cc(OC)c1 equals 6.00 to 7.00

The recorded pEC50 for entry COc1cc(OC)cc(N2C(N)=C(c3nc4ccccc4[nH]3)C(=O)C2(C)C)c1 equals 6.00 to 7.00

The recorded pEC50 for entry COc1cc(OC)cc(N2C(N)=C(c3nc4ccccc4[nH]3)C(=O)C23CCN(C)C3)c1 (centres unmarked) equals 5.00 to 6.00

The recorded pEC50 for entry COc1cc(OC)cc(N2C(N)=C(c3nc4ccccc4[nH]3)C(=O)C23CC3)c1 equals 5.00 to 6.00

The recorded pEC50 for entry COc1ccc(OC)c(N2C(N)=C(c3nc4ccccc4[nH]3)C(=O)C2(C)C)c1 equals 5.00 to 6.00

The recorded pEC50 for entry COc1cc(OC)cc(N2C(N3CCCC3)=C(c3nc4ccccc4[nH]3)C(=O)C2(C)C)c1 equals 5.00 to 6.00

The recorded pEC50 for entry COC(=O)C1C(=O)C(c2nc3ccccc3[nH]2)=C(N)N1c1cc(OC)cc(OC)c1 (centres unmarked) equals 5.00 to 6.00

The recorded pEC50 for entry CC1(C)C(=O)C(c2nc3ccccc3[nH]2)=C(N)N1c1cc(Cl)cc(Cl)c1 equals 5.00 to 6.00

The recorded pEC50 for entry COc1cc(OC)cc(N2C(N)=C(c3nc4ccccc4[nH]3)C(=O)C2(C)CO)c1 (centres unmarked) equals 6.00 to 7.00

The recorded pEC50 for entry CCOc1cc(OCC)cc(N2C(N)=C(c3nc4ccccc4[nH]3)C(=O)C2(C)C)c1 equals 5.00 to 6.00

The recorded pEC50 for entry CNC1=C(c2nc3ccccc3n2C)C(=O)C(C)(C)N1c1cc(OC)cc(OC)c1 equals 6.00 to 7.00

The recorded pEC50 for entry Cc1cc(C)cc(N2C(N)=C(c3nc4ccccc4[nH]3)C(=O)C2(C)C)c1 equals 6.00 to 7.00

The recorded pEC50 for entry COCCNC1=C(c2nc3ccccc3[nH]2)C(=O)C(C)(C)N1c1cc(OC)cc(OC)c1 equals 5.00 to 6.00

The recorded pEC50 for entry COc1cc(OC)cc(-n2c(NO)c(-c3nc4ccccc4[nH]3)c(=O)n2C)c1 equals 5.00 to 6.00

The recorded pEC50 for entry CNC1=C(c2nc3ccccc3[nH]2)C(=O)C2(CNC2)N1c1cc(OC)cc(OC)c1 equals 6.00 to 7.00

The recorded pEC50 for entry CNC1=C(c2nc3ccccc3[nH]2)C(=O)C(C)N1c1cc(OC)cc(OC)c1 (centres unmarked) equals > 7.00

The recorded pEC50 for entry COc1cc(OC)cc(N2CC(=O)C(c3cn4ccccc4n3)=C2N)c1 equals 5.00 to 6.00

The recorded pEC50 for entry CNC1=C(c2nc3ccccc3[nH]2)C(=O)C(C)(C)N1c1cc(OC)cc(OC)c1 equals > 7.00

The recorded pEC50 for entry COc1cc(OC)cc(N2C(N)=C(c3nc4ccccc4[nH]3)C(=O)C2CO)c1 (centres unmarked) equals 5.00 to 6.00

The recorded pEC50 for entry CNC1=C(c2nc3ccccc3[nH]2)C(=O)C(C)(C)N1c1cc(C)cc(C)c1 equals 6.00 to 7.00

The recorded pEC50 for entry [2H]C([2H])([2H])Oc1cc(OC([2H])([2H])[2H])cc(N2C(N)=C(c3nc4ccccc4[nH]3)C(=O)C2(C)C)c1 equals 6.00 to 7.00

The recorded pEC50 for entry COc1cc(OC)cc(-n2nc(N)c(-c3nc4ccccc4[nH]3)c2N)c1 equals 6.00 to 7.00

The recorded pEC50 for entry COc1cc(OC)cc(N2C(N)=C(c3nc4ccccc4[nH]3)C(=O)C2O)c1 (centres unmarked) equals 6.00 to 7.00

The recorded pEC50 for entry COc1cccc(N2C(N)=C(c3nc4ccccc4[nH]3)C(=O)C2(C)C)c1 equals 5.00 to 6.00

The recorded pEC50 for entry CCC1(O)C(=O)C(c2nc3ccccc3[nH]2)=C(NC)N1c1cc(OC)cc(OC)c1 (centres unmarked) equals 6.00 to 7.00

The recorded pEC50 for entry COc1cc(OC)cc(N2C(N)=C(c3nc4ccccc4[nH]3)C(=O)C23COC3)c1 equals 6.00 to 7.00

The recorded pEC50 for entry COc1cc(OC)cc(N2C(N)=C(c3nc4ccccc4[nH]3)C(=O)C2(C)O)c1 (centres unmarked) equals 6.00 to 7.00

The recorded pEC50 for entry COc1cc(OC)cc(N2C(N)=C(c3nc4ccccc4[nH]3)C(=O)[C@@H]2c2ccccc2)c1 equals 5.00 to 6.00

---

So I've got a bunch of compounds here, and I need their pEC50 values.
# tested on: mu-opioid receptor (Homo sapiens, UniProt P35372)
# assay: biochemical
# condition info: […]; class symbol combines EC50 and efficacy; read-out: GTP Activity
pEC50: −log10 of the molar value.

The recorded pEC50 for entry COc1cc(OC)cc(N2C(N)=C(c3nc4ccccc4[nH]3)C(=O)C2(C)c2cccc(O)c2)c1 (stereo not drawn) equals 5.00 to 6.00

The recorded pEC50 for entry CNC1=C(c2nc3ccccc3[nH]2)C(=O)[C@@](C)(CO)N1c1cc(OC)cc(OC)c1 equals 6.00 to 7.00

The recorded pEC50 for entry CNC1=C(c2nc3ccccc3[nH]2)C(=O)C(CCOC)N1c1cc(OC)cc(OC)c1 (stereo not drawn) equals > 7.00

The recorded pEC50 for entry CNC1=C(c2nc3ccccc3[nH]2)C(=O)C(CO)(CO)N1c1cc(OC)cc(OC)c1 equals 6.00 to 7.00

The recorded pEC50 for entry CNC1=C(c2nc3ccccc3[nH]2)C(=O)[C@@H](CNC(=O)COC)N1c1cc(OC)cc(OC)c1 equals > 7.00

The recorded pEC50 for entry CNC1=C(c2nc3ccccc3[nH]2)C(=O)C(CCNC(=O)c2ccccc2)N1c1cc(OC)cc(OC)c1 (stereo not drawn) equals > 7.00

The recorded pEC50 for entry COc1cc(OC)cc(N2C(N)=C(c3nc4ccccc4[nH]3)C(=O)C2CCn2ccnc2)c1 (stereo not drawn) equals 6.00 to 7.00

The recorded pEC50 for entry CNc1c(-c2nc3ccccc3[nH]2)c(=O)n(C2CCC2)n1-c1cc(OC)cc(OC)c1 equals 6.00 to 7.00

The recorded pEC50 for entry CNC1=C(c2nc3ccccc3[nH]2)C(=O)C(C)(c2ccco2)N1c1cc(OC)cc(OC)c1 (stereo not drawn) equals 6.00 to 7.00

The recorded pEC50 for entry CNC1=C(c2nc3ccccc3[nH]2)C(=O)C2(CNC(=O)C2)N1c1cc(OC)cc(OC)c1 (stereo not drawn) equals 6.00 to 7.00

The recorded pEC50 for entry CNC1=C(c2nc3ccccc3[nH]2)C(=O)C(CCO)N1c1cc(OC)cc(OC)c1 (stereo not drawn) equals > 7.00

The recorded pEC50 for entry CNC1=C(c2nc3ccccc3[nH]2)C(=O)C(CNC(=O)COC)N1c1cc(OC)cc(OC)c1 (stereo not drawn) equals > 7.00

The recorded pEC50 for entry CNC1=C(c2nc3ccccc3[nH]2)C(=O)[C@H](CNC(=O)COC)N1c1cc(OC)cc(OC)c1 equals > 7.00

The recorded pEC50 for entry CCOC(=O)C1CC2(CC1=O)C(=O)C(c1nc3ccccc3[nH]1)=C(N)N2c1cc(OC)cc(OC)c1 (stereo not drawn) equals 5.00 to 6.00

The recorded pEC50 for entry CNC1=C(c2nc3ccccc3[nH]2)C(=O)C(C)(CCNC(=O)COC)N1c1cc(OC)cc(OC)c1 (stereo not drawn) equals > 7.00
